tested on: Fer (mouse); test: phosphorylation enrichment, bacterial display (enrichment ratio); higher = better substrate or ligand; peptides without Tyr show the background;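 also: 11-residue human phosphosite peptides and single-mutation variants displayed on the E. coli surface, counted by deep sequencing, each peptide's frequency after selection divided by its frequency in the unselected input library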;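 also: frequency after pTyr selection over input frequency; kinase dosed for 20-30% of maximal phosphorylation in three min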
Outcome Measure: phosphorylation enrichment
Quick one: just the number, no unit, thanks!

AKNKDYMSIIR [GNE_Y197]: 0.473

We next turn to a different sequence, shown below.
Task item: Endpoint output: phosphorylation enrichment of RGYRQDAYDGK [HLA-A_Y140] . Value?
Reply: 0.764

----------
molecular target: EPHB1 (UniProt P54762); assay: phosphorylation enrichment, bacterial display (enrichment ratio); higher = better substrate or ligand; peptides without Tyr show the background
Sequence (P54762 whole entry, looked up): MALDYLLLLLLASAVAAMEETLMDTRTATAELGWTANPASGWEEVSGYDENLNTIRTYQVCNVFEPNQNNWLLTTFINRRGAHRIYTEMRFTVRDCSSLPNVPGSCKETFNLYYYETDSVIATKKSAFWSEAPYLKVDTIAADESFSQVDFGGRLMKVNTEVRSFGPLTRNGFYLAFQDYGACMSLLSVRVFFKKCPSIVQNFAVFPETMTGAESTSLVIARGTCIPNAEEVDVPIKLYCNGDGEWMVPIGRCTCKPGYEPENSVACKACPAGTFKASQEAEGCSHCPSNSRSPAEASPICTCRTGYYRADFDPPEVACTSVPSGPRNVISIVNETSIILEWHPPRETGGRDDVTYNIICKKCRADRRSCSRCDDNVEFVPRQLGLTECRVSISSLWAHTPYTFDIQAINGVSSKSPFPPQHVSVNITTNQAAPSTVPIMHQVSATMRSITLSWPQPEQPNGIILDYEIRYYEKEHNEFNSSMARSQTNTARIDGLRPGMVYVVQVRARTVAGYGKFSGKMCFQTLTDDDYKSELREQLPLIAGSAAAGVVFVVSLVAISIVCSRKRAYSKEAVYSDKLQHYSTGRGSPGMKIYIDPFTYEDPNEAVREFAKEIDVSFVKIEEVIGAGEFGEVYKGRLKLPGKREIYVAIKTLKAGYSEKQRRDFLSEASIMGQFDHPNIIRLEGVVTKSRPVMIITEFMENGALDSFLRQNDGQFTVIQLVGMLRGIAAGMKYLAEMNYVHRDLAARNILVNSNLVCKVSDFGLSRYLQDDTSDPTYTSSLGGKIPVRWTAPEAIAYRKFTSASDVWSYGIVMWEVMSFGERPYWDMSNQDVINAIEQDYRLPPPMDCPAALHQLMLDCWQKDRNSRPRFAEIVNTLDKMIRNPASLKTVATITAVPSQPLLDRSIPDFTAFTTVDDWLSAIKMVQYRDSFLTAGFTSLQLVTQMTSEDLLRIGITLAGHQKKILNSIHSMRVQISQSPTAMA
Listing of recorded phosphorylation enrichment by entry.
Quick one: just the number, no unit, thanks!

Task item: Item: ADARMYGVHPW [PLP1_Y207_L210H] Test system: EPHB1 (UniProt P54762) Read-out: phosphorylation enrichment Value: ?
Reply: 0.458

Task item: Would you kindly repeat that for RSSPVYVGRVV [TGM2_Y219] ?
Reply: 0.59

Task item: Would you kindly repeat that for FPAVGYHKPHI [IDS_Y225_L221P] ?
Reply: 0.393
